IC50 overview
# experimental target: LMPTP-A (Low Molecular Weight Protein Tyrosine Phosphatase-A) enzyme (Homo sapiens (Human), UniProt P24666)
# Sequence (P24666 whole entry): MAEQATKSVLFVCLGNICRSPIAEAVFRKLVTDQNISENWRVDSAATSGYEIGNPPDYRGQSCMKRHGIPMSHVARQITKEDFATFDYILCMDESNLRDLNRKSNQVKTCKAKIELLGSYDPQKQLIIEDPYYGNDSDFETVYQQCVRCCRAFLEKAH
# assay details: LMPTP primary screening / LMPTP (OMFP) enzyme inhibition assay, fluorescence intensity
# Format: biochemical
# recorded conditions: LMPTP-A, OMFP substrate, method of Example 2; read-out: IC50

>  <compound>
c1ccc(CSc2cccc(-c3cc(NCCCN4CCCCC4)c4ccccc4n3)c2)cc1

>  <IC50>
> 5000 nM

$$$$
>  <compound>
COc1ncc(-c2cc(NCCCN3CCCCC3)c3ccccc3n2)c(OC)n1

>  <IC50>
801 to 5000 nM

$$$$
>  <compound>
Cn1ccc(-c2cc(NCCCN3CCCCC3)c3ccccc3n2)n1

>  <IC50>
> 5000 nM

$$$$
>  <compound>
FC(F)(F)c1ccc(Nc2cc(NCCCN3CCCCC3)c3ccccc3n2)c(C(F)(F)F)c1

>  <IC50>
> 5000 nM

$$$$
>  <compound>
O=C(NCCCN1CCCCC1)c1ccc(-c2cc(NCCCN3CCCCC3)c3ccccc3n2)cc1

>  <IC50>
200 to 800 nM

$$$$
>  <compound>
NC(=O)c1cccc(-c2cc(NCCCN3CCCCC3)c3ccccc3n2)c1

>  <IC50>
801 to 5000 nM

$$$$
>  <compound>
COc1ccc(-c2cc(Nc3ccc(F)cc3)c3ccccc3n2)cc1

>  <IC50>
801 to 5000 nM

$$$$
>  <compound>
COc1ccc(-c2cc(Nc3cccc(C#N)c3)c3ccccc3n2)cc1

>  <IC50>
200 to 800 nM

$$$$
>  <compound>
CCN(CC)C(=O)c1ccc(-c2cc(NCCCC3CCCNC3)c3ccccc3n2)cc1 (stereo not drawn)

>  <IC50>
200 to 800 nM

$$$$
>  <compound>
CCN1CCN(Cc2ccc(Nc3cc(-c4ccc(C(N)=O)cc4)nc4ccccc34)cc2)CC1

>  <IC50>
> 5000 nM

$$$$
>  <compound>
NCc1ccc(-c2cc(NCCCN3CCCCC3)c3ccccc3n2)cc1

>  <IC50>
200 to 800 nM

$$$$
>  <compound>
c1ccc2c(NCCCN3CCCCC3)cc(-c3ccc4c(c3)OCO4)nc2c1

>  <IC50>
801 to 5000 nM

$$$$
>  <compound>
COc1ccc(-c2cc(Nc3ccccc3CC3CCN(C)CC3)c3ccccc3n2)cc1

>  <IC50>
> 5000 nM

$$$$
>  <compound>
COc1ccc(-c2cc(Nc3ccc(C)cc3)c3ccccc3n2)cc1

>  <IC50>
801 to 5000 nM

$$$$
>  <compound>
COc1ccc(-c2cc(Nc3cccc(CC#N)c3)c3ccccc3n2)cc1

>  <IC50>
801 to 5000 nM

$$$$
>  <compound>
c1ccc2sc(-c3cc(NCCCN4CCCCC4)c4ccccc4n3)cc2c1

>  <IC50>
801 to 5000 nM

$$$$
>  <compound>
COc1ccc(-c2cc(Nc3cccc(CN(C)C)c3)c3ccccc3n2)cc1 [Compound I39]

>  <IC50>
801 to 5000 nM

$$$$
>  <compound>
FC(F)(F)c1ncccc1-c1cc(NCCCN2CCCCC2)c2ccccc2n1

>  <IC50>
801 to 5000 nM

$$$$
>  <compound>
COC(=O)CNC(=O)c1ccc(-c2cc(NCCCN3CCCCC3)c3ccccc3n2)cc1

>  <IC50>
801 to 5000 nM

$$$$
>  <compound>
COc1ccc(-c2cc(NCCCN3CCCCC3)c3cc(OC)ccc3n2)cc1

>  <IC50>
> 5000 nM

$$$$
>  <compound>
c1ccc2c(NCCCN3CCCCC3)cc(-c3ccc4c(c3)OCCO4)nc2c1

>  <IC50>
801 to 5000 nM

$$$$
>  <compound>
c1ccc2c(NCCCN3CCCCC3)cc(-c3ccc4ccsc4c3)nc2c1

>  <IC50>
200 to 800 nM

$$$$
>  <compound>
CC(C)NC(=O)c1ccc(-c2cc(NCCCN3CCCCC3)c3ccccc3n2)cc1

>  <IC50>
801 to 5000 nM

$$$$
>  <compound>
COc1ccc(-c2cc(Nc3ccn(C)n3)c3ccccc3n2)cc1

>  <IC50>
801 to 5000 nM

$$$$
